System: HCV replicon 1A
Test: microbe, parasite or virus in culture
Assay type: cell-based, Hepatitis C virus (HCV)
Details: HCV replicon 1A; Replicon Assay A
Quantity: log10 of IC50 (log10 of the value in pM)

[[record]]
molecule = "COC(=O)N[C@H](C(=O)N1CCC[C@H]1c1ncc(-c2ccc3c(c2)OC(c2ccc(C4CC4)s2)n2c-3cc3cc(-c4cnc([C@@H]5CCCN5C(=O)[C@@H](NC(=O)OC)C(C)C)[nH]4)ccc32)[nH]1)C(C)C (single isomer, unassigned) [Compound 704]"
target_under_test = "HCV replicon 1A"
readout_number = 0.46

[[record]]
molecule = "COC(=O)N[C@H](C(=O)N1CCC[C@H]1c1ncc(-c2ccc3c(c2)OC(c2ccc(C4CC4)s2)n2c-3cc3cc(-c4cnc([C@@H]5CCCN5C(=O)[C@@H](NC(=O)OC)C(C)C)[nH]4)ccc32)[nH]1)C(C)C (single isomer, unassigned) [Compound 703]"
target_under_test = "HCV replicon 1A"
readout_number = 1.48

[[record]]
molecule = "COC(=O)N[C@H](C(=O)N1CCC[C@H]1c1cnc(-c2ccc3c(c2)cc2n3C(c3cc4ccccc4s3)Oc3cc(-c4cnc([C@@H]5CCCN5C(=O)[C@@H](NC(=O)OC)C5CCOCC5)[nH]4)ccc3-2)[nH]1)C1CCOCC1 (single isomer, unassigned) [Compound 810]"
target_under_test = "HCV replicon 1A"
readout_number = 0.60

[[record]]
molecule = "COC(=O)N[C@H](C(=O)N1CCC[C@H]1c1ncc(-c2cc(F)c3c(c2)OC(c2cc4c(s2)CCC4)n2c-3cc3cc(-c4cnc([C@@H]5C[C@H]6C[C@H]6N5C(=O)[C@@H](NC(=O)OC)C5CCOCC5)[nH]4)ccc32)[nH]1)C(C)C (single isomer, unassigned) [Compound 542]"
target_under_test = "HCV replicon 1A"
readout_number = 0.53

[[record]]
molecule = "COC(=O)NC(C(=O)N1CCCC1c1ncc(-c2cc(F)c3c(c2)OC(c2cc4c(s2)CC(C)(C)C4)n2c-3cc3cc(-c4cnc(C5CCCN5C(=O)C(NC(=O)OC)C(C)C)[nH]4)ccc32)[nH]1)C(C)C (mixture of isomers) [Compound 846]"
target_under_test = "HCV replicon 1A"
readout_number = 0.46

[[record]]
molecule = "COC(=O)NC(C(=O)N1CCCC1c1ncc(-c2cc(F)c3c(c2)OC(c2cc4c(s2)CC2(C4)OCCO2)n2c-3cc3cc(-c4cnc(C5CCCN5C(=O)C(NC(=O)OC)C(C)C)[nH]4)ccc32)[nH]1)C(C)C (mixture of isomers) [Compound 847]"
target_under_test = "HCV replicon 1A"
readout_number = 0.58

[[record]]
molecule = "COC(=O)N[C@H](C(=O)N1CCC[C@H]1c1nc(-c2cc(F)c3c(c2)OC(c2ccc(C4CC4)s2)n2c-3cc3cc(-c4c[nH]c([C@@H]5C[C@H]6C[C@H]6N5C(=O)[C@@H](NC(=O)OC)C(C)C)n4)ccc32)c[nH]1)C(C)C (single isomer, unassigned) [Compound 719]"
target_under_test = "HCV replicon 1A"
readout_number = 1.00

